measure name: melting point (°C)

compound: CC(C)(C)c1ccc(CN(O)C(=S)NCc2ccc(NS(C)(=O)=O)cc2)cc1 [Compound 28]
readout unit: °C
observed result: 137
//
compound: CC(C)(C)c1ccc(CNC(=S)N(O)Cc2ccc(NS(C)(=O)=O)cc2)cc1 [Compound 60]
readout unit: °C
observed result: 124
//
compound: CC(C)(C)c1ccc(CNC(=O)N(O)Cc2ccc(NS(C)(=O)=O)cc2)cc1 [Compound 62]
readout unit: °C
observed result: 125

###

target under test: VR1 (Rattus norvegicus, UniProt O35433)
Construct: expressed in transfected cells; host or cells: Chinese Hamster Ovary cells (CHO, ATCC CCL-61), Tet-off inducible expression
Sequence (O35433 whole entry): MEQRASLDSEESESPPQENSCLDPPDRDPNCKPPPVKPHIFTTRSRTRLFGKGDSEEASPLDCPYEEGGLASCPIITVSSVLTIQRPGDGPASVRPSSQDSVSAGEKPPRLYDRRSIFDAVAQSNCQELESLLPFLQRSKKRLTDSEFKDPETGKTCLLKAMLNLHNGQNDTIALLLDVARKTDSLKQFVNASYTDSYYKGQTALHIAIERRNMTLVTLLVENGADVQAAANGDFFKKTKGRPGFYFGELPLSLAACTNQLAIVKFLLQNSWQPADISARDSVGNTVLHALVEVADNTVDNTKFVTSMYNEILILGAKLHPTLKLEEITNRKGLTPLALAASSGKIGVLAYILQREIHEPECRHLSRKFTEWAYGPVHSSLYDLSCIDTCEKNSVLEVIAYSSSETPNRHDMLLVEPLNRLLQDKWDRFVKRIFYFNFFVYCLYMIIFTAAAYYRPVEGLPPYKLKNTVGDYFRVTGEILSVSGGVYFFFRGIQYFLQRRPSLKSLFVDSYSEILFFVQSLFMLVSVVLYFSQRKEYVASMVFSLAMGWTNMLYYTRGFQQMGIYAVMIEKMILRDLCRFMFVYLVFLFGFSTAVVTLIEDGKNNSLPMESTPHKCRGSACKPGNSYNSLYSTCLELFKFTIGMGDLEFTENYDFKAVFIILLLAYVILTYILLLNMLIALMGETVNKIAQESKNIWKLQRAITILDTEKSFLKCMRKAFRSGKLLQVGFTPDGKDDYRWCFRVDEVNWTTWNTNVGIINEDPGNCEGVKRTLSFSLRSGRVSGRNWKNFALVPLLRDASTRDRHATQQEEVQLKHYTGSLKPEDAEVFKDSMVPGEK
assay comment: 45Ca influx test in CHO cells expressing VR1, agonistic activity
Assay type: cell-based
condition set: 45Ca uptake
measure name: EC50 (nM)

Solved entries (count: 3):
molecule: CC(C)(C)c1ccc(CNC(=O)N(O)Cc2ccc(NS(C)(=O)=O)cc2)cc1 [Compound 62]
EC50, nM: 1060

molecule: COc1cc(CNC(=S)N(O)CC(COC(=O)C(C)(C)C)Cc2ccc(C)c(C)c2)ccc1NS(C)(=O)=O (stereo not drawn) [Compound 36]
EC50, nM: 809

molecule: Cc1ccc(CC(COC(=O)C(C)(C)C)CN(O)C(=S)NCc2ccc(NS(C)(=O)=O)cc2F)cc1C (stereo not drawn) [Compound 38]
EC50, nM: 1350

I: COc1cc(CNC(=S)N(O)Cc2ccc(C(C)(C)C)cc2)ccc1NS(C)(=O)=O [Compound 29]
II: Cc1ccc(CC(COC(=O)C(C)(C)C)CN(O)C(=S)NCc2ccc(NS(C)(=O)=O)cc2)cc1C (stereo not drawn) [Compound 35]
III: CC(C)(C)c1ccc(CN(O)C(=O)Cc2ccc(NS(C)(=O)=O)cc2)cc1 [Compound 45]
*Q* Reorder the items by EC50, least to greatest. Could you list the labels in the order requested?
*A* II, I, III

###

target under test: VR1 (Rattus norvegicus, UniProt O35433)
Construct: expressed in transfected cells; host or cells: Chinese Hamster Ovary cells (CHO, ATCC CCL-61), Tet-off inducible expression
assay comment: 45Ca influx test in CHO cells expressing VR1, antagonistic activity against 50 nM capsaicin
Format: cell-based
condition set: 45Ca uptake stimulated with 50 nM capsaicin
measure name: IC50 (nM)

compound: CC(C)(C)c1ccc(CN(O)C(=S)NCc2ccc(NS(C)(=O)=O)cc2)cc1 [Compound 28]
target under test: VR1 (Rattus norvegicus, UniProt O35433)
measure name: IC50
observed result: 470

compound: Cc1ccc(CC(COC(=O)C(C)(C)C)CN(O)C(=S)NCc2ccc(NS(C)(=O)=O)c(F)c2)cc1C (stereo not drawn) [Compound 37]
target under test: VR1 (Rattus norvegicus, UniProt O35433)
measure name: IC50
observed result: 93.7

compound: CC(C)(C)c1ccc(CN(O)C(=O)Cc2ccc(NS(C)(=O)=O)cc2)cc1 [Compound 45]
target under test: VR1 (Rattus norvegicus, UniProt O35433)
measure name: IC50
observed result: 6590

1: CC(C)(C)c1ccc(CNC(=S)N(O)Cc2ccc(NS(C)(=O)=O)cc2)cc1 [Compound 60]
2: Cc1ccc(CC(COC(=O)C(C)(C)C)CN(O)C(=S)NCc2ccc(NS(C)(=O)=O)cc2)cc1C (stereo not drawn) [Compound 35]
*Q* Dear colleague, could you let me know whether 1 or 2 has the lower recorded IC50? Thanks. Answer = label.
*A* 2
(2: 212 nM, 1: 465 nM)
